Biological target: GLP-1 Receptor (Homo sapiens)
Construct: host or cells: HEK293/GLP1R/CRE-LUC (HEK293/CRE-Luc stably expressing GLP-1R)
Sequence (P43220 24-463): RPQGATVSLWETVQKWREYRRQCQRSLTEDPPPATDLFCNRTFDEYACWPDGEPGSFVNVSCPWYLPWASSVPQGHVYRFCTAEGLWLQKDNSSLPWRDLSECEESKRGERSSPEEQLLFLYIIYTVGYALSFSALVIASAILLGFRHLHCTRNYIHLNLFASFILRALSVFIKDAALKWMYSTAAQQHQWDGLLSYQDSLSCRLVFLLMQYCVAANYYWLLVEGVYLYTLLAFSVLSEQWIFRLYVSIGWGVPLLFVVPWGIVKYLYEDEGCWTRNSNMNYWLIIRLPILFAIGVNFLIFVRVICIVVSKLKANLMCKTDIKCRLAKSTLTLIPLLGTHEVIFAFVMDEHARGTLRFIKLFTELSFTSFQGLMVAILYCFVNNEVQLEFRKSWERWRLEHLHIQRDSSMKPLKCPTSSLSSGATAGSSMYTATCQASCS
Assay: GLP-1R agonist cAMP stimulation assay (HEK293/GLP1R/CRE-LUC cells, HTRF cAMP dynamic 2 kit)
Type: cell-based
Conditions: HEK293/CRE-Luc cell line (HDB), 30 min incubation, read-out: GLP1R cAMP Stimulation DR: EC50 (nM) [Species: Human, Assay Cell Line: HDB]
Quantity Name: EC50 (nM)
One number for each entry, in nM.

CCP(=O)(CC)c1ccc(-n2ccn(-c3c(-c4cc(C)c(F)c(C)c4)nn4c3C(C)N(C(=O)c3cc5cc(C6CCOCC6)ccc5n3C3(c5noc(=O)[nH]5)CC3)CC4)c2=O)cc1NC (stereo not shown) ... 0.18

Dear reader, for each entry below, please note its EC50.
1. Cc1cc(-c2nn3c(c2-n2ccn(-c4ccc5c(cnn5C)c4)c2=O)CN(C(=O)c2cc4cc(C5CCOCC5)ccc4n2C2(c4noc(=O)[nH]4)CC2)CC3)cc(C)c1F
2. CCP(=O)(CC)c1ccc(-n2ccn(-c3c(-c4cc(C)c(F)c(C)c4)nn4c3C(C)N(C(=O)c3cc5cc(C6CCOCC6)ccc5n3[C@@]3(c5noc(=O)[nH]5)C[C@@H]3C)CC4)c2=O)cc1NC (mixture of isomers) [Compound 108a]

result:
3.41
0.1

Entry CCP(=O)(CC)c1ccc(-n2ccn(-c3c(-c4cc(C)c(F)c(C)c4)nn4c3C(C)N(C(=O)c3cc5cc(C6CCOCC6)ccc5n3[C@@]3(c5noc(=O)[nH]5)C[C@@H]3C)CC4)c2=O)cc1NC (single isomer, unassigned) [Compound 111a] , EC50 reported as 0.042

###

Target: GLP-1 Receptor (Homo sapiens)
Construct: host or cells: HEK293/GLP1R/CRE-LUC (HEK293/CRE-Luc stably expressing GLP-1R)
Assay: GLP-1R agonist cAMP stimulation assay (HEK293/GLP1R/CRE-LUC cells, HTRF cAMP dynamic 2 kit)
Type: cell-based
Details: HEK293/CRE-Luc cell line (HDB), 30 min incubation, read-out: GLP1R cAMP Stimulation DR: EC50 (nM) [Species: Human, Assay Cell Line: HDB]
Provide the reported EC50 of each item.
Give bare numbers, in nM.

Cc1cc(-c2nn3c(c2-n2ccn(-c4ccc5c(cnn5C)c4F)c2=O)C(C)N(C(=O)c2cc4cc(C5CCOCC5)ccc4n2[C@@]2(c4noc(=O)[nH]4)C[C@@H]2C)CC3)cc(C)c1F (single isomer, unassigned) [Compound 110a] ... 0.13
CCP(=O)(CC)c1ccc(-n2ccn(-c3c(-c4cc(C)c(F)c(C)c4)nn4c3C(C)N(C(=O)c3cc5cc(N6CCOCC6)ccc5n3[C@@]3(c5noc(=O)[nH]5)C[C@@H]3C)CC4)c2=O)cc1NC (single isomer, unassigned) [Compound 114a] ... 0.068
Cc1cc(-c2nn3c(c2-n2ccn(-c4ccc5c(cnn5C)c4)c2=O)C(C)N(C(=O)c2cc4cc(C5CCOCC5)ccc4n2C2(c4noc(=O)[nH]4)CC2)CC3)cc(C)c1F (stereo not shown) [Compound 103] ... 0.29

Here is another compound to look at.
Entry CCP(=O)(CC)c1ccc(-n2ccn(-c3c(-c4cc(C)c(F)c(C)c4)nn4c3C(C)N(C(=O)c3cc5cc(N6CCOC(C)(C)C6)ccc5n3[C@@]3(c5noc(=O)[nH]5)C[C@@H]3C)CC4)c2=O)cc1NC (single isomer, unassigned) [Compound 115a] , EC50 reported as 0.15
